SYSTEM_TESTED: Muscarinic acetylcholine receptor M1 (Rattus norvegicus, UniProt P08482)
Sequence (P08482 whole entry): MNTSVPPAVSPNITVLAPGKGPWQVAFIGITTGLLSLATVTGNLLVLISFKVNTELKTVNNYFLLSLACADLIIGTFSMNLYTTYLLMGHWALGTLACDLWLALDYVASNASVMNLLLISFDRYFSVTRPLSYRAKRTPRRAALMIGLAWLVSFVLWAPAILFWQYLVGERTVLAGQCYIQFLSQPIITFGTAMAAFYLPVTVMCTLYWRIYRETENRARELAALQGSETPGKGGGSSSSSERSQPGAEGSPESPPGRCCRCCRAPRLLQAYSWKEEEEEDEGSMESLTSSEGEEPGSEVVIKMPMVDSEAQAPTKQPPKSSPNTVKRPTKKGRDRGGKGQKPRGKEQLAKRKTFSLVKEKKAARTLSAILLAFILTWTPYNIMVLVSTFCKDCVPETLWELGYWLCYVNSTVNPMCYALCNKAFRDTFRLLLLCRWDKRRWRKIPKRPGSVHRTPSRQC
TEST: Displacement of [3H]pirenzepine from muscarinic M1 receptor of rat cortex homogenates.
ASSAY_READOUT: Ki (nM)

CCN(CC)CC#CCN1C(=O)c2ccccc2C1=O : 30
CCN(CC)CC#CCN1C(=O)CC2(CCc3ccccc32)C1=O (configuration not stated) : 680
CC(C)N(CC#CCN1C(=O)CC2(C1=O)c1ccccc1-c1ccccc12)C(C)C : 1620
CCN(CC)CC#CCN1C(=O)NC(c2ccccc2)(c2ccccc2)C1=O : 380
CCN(CC)CC#CCN1C(=O)CC(c2ccccc2)(c2ccccc2)C1=O : 120
CCN(CC)CC#CCN1C(=O)CC(c2ccccc2)C1=O (configuration not stated) : 2300
CCN(CC)CC#CCN1C(=O)CC2(C1=O)c1ccccc1CCc1ccccc12 : 460
CC(C)N(CC#CCN1C(=O)CC(c2ccccc2)(c2ccccc2)C1=O)C(C)C : 530
O=C1CC2(CCc3ccccc32)C(=O)N1CC#CCN1CCCC1 (configuration not stated) : 1590
CCN(CC)CC#CCN1C(=O)NC2(CCc3ccccc32)C1=O (configuration not stated) : 1050
O=C1NC(c2ccccc2)(c2ccccc2)C(=O)N1CC#CCN1CCCC1 : 640
CCN(CC)CC#CCN1C(=O)CC2(C1=O)c1ccccc1-c1ccccc12 : 1630

----------
SYSTEM_TESTED: Muscarinic acetylcholine receptor M2 (Rattus norvegicus)
Sequence (P10980 whole entry): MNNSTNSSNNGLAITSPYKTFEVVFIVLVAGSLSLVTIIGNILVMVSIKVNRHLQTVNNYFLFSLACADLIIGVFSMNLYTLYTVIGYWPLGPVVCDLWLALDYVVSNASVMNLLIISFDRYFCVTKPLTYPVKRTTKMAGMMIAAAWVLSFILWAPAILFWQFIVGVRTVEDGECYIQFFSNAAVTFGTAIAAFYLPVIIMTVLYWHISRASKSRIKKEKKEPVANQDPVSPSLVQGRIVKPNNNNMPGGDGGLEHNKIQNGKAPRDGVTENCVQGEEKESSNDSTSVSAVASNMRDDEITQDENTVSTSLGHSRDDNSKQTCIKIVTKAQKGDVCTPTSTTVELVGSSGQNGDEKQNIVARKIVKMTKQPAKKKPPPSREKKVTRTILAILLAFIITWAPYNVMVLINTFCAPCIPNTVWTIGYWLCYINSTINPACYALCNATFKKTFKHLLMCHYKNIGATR
pKi: −log10 of the molar value.
Collected pKi values appear next to each entry.
ASSAY_READOUT: pKi

CCN(CC)CC#CCN1C(=O)NC(c2ccccc2)(c2ccccc2)C1=O : 6.02
CC(C)N(CC#CCN1C(=O)CC(c2ccccc2)(c2ccccc2)C1=O)C(C)C : 6.36
CCN(CC)CC#CCN1C(=O)c2ccccc2C1=O : 7.00
CCN(CC)CC#CCN1C(=O)CC2(C1=O)c1ccccc1CCc1ccccc12 : 5.68
CCN(CC)CC#CCN1C(=O)CC(c2ccccc2)(c2ccccc2)C1=O : 6.42

Measured values drawn from ChEMBL document CHEMBL1150993 for this set.
